- test-system: bacteriophage T4 DNA polymerase (Enterobacteria phage T4, UniProt P04415)
- Construct: made in house
- Sequence (P04415 whole entry): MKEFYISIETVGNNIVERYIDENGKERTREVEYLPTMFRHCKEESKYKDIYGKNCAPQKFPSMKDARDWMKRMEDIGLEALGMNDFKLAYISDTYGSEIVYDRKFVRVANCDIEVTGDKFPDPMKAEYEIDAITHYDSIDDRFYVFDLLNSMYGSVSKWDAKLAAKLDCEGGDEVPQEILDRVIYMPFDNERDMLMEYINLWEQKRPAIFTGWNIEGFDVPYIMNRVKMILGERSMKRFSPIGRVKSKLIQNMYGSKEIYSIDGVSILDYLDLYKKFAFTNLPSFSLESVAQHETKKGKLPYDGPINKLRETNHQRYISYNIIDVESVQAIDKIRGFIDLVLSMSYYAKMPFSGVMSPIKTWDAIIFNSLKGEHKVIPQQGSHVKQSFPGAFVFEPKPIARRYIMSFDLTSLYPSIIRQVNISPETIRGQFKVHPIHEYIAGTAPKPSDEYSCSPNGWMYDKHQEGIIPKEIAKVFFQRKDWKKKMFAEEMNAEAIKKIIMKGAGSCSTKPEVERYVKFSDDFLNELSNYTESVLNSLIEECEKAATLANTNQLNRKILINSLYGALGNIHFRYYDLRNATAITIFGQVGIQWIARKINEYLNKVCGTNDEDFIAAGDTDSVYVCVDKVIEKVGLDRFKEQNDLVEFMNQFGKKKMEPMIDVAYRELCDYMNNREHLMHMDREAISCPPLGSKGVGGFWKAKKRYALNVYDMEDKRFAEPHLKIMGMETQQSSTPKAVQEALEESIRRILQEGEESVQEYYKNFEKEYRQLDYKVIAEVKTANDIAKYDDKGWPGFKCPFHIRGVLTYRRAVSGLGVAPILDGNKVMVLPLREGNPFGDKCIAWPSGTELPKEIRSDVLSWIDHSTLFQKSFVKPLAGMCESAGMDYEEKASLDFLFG
- assay-notes: Counter-screen against bacteriophage T4 DNA polymerase
- Assay type: biochemical
- stated-conditions: DRC-1; read at 70'; concentration 20
Label rule, in plain words: % inhibition T4 70' 20 of 10% and up is YES, under 10% is NO.

>>> print(df.to_string())
                                   compound  label_class
0               Nc1cc(Oc2ccc(O)c(N)c2)ccc1O           NO
1  O=C(CCc1csc(NC(=O)Nc2ccccc2)n1)Nc1nc2ccccc2s1          YES
2  O=C1CSC2=NC3=C(CCc4ccccc43)C(c3cccs3)N12 (centres unmarked)          YES
3  Cc1cc2[nH]c(C(=O)Nc3ccc(F)cc3)c(CN3CCOCC3)c2s1          YES
4  Cn1nc(-c2nnc(-c3ccccc3F)o2)c2c1CCN(C(=O)c1ccccc1Cl)C2           NO
5  COc1ccccc1CC(=O)N1CCc2c(nc3cc(-c4ccccc4Cl)[nH]n3c2=O)C1           NO
6  Cc1cccc(-c2noc(C(=O)NNC(=O)C(Cl)(Cl)Cl)n2)c1           NO
7  CC(=O)OCC1=C(C(=O)[O-])N2C(=O)[C@@H](NC(=O)Cc3cccs3)[C@H]2SC1.[Na+]          YES

====

- test-system: P. falciparum apicoplast DNA polymerase (Pf-apPOL) (Plasmodium falciparum)
- Sequence (Q8ILY1 entry or part of it): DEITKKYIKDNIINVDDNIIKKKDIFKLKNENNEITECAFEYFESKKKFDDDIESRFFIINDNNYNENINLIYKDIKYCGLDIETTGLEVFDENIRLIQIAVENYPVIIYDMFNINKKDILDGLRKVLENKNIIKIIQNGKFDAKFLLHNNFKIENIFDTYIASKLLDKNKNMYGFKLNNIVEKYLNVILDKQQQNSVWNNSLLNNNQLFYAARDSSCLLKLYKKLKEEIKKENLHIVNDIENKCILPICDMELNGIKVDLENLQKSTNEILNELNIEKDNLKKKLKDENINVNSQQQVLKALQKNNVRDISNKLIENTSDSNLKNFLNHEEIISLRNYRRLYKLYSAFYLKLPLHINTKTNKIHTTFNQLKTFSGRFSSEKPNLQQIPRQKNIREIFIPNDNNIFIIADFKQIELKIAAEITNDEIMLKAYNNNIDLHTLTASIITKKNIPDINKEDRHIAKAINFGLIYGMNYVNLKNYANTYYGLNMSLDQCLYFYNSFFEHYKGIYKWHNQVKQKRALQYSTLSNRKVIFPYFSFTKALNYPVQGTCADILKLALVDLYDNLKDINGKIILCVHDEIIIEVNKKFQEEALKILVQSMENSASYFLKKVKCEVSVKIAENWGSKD
- assay-notes: Fluorescence-based high-throughput DNA polymerase assay (molecular beacon), primary screen and dose-response;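 as to % inhibition Apol 40': compound concentration given in µM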
- Format: biochemical
- stated-conditions: DRC-2; concentration 20; 40'
The label depends only on % inhibition Apol 40': YES if it is at least 60%, NO if it is smaller.

>>> df
                                    compound  label_class
 0  Nc1ncnc(NC2CCCCC2)c1[N+](=O)[O-] [KU0193018]           NO
 1  COc1ccc(NC(=O)Cn2nc3c(cc2=O)CCC3)cc1Cl [Molecule 4, COc1ccc(cc1Cl)NC(=O)Cn1nc2CCCc2cc1=O]          YES
 2  COc1ccc(-c2occ(C(=O)O)c2C(=O)O)cc1 [KU0021536]          YES
 3  O=C(Cn1ccc2c(=O)[nH]ccc21)Nc1ccccc1Cl [Molecule 19, O=C(Cn1ccc2c1cc[nH]c2=O)Nc1ccccc1Cl]          YES
 4  CCc1ccccc1NC(=O)c1ccc(-c2ncccc2NC(C)=O)cc1 [KU0203112]           NO
 5  O=[N+]([O-])c1ccc(SCc2ccco2)c2cccnc12 [KU0034480]          YES
 6  COc1ccc(C=C2Oc3c(ccc4c3CN(Cc3ccco3)CO4)C2=O)c(OC)c1 [KU0199404]           NO
 7  CCCN1COc2ccc3c(=O)c(-c4ccccc4)coc3c2C1 [KU0199556]           NO
 8  CCCCCc1c2c(cc(O)c1C(=O)O)OC(=O)c1c(cc(OC)cc1C(=O)CCCC)O2 [Molecule 24]           NO
 9  Cc1ccc(C2=N/C(=C\c3ccc(I)o3)C(=O)O2)cc1[N+](=O)[O-] [KU0073890]          YES
10  O=C(O)c1cc([N+](=O)[O-])c(N2CCN(c3cccc(C(F)(F)F)c3)CC2)c([N+](=O)[O-])c1 [KU0076747]           NO
11  O=C(O)c1nc(-c2ccccc2)nc2c1OCO2 [Molecule 45, OC(=O)c1nc(nc2c1OCO2)c1ccccc1]           NO
12  O=C1c2ccccc2C(=O)c2c1oc1c3c(ccc21)OCN(C1CCCC1)C3 [KU0064306]           NO
13  COc1cc(/C=C2\C(=O)N(c3ccc(C(=O)O)cc3)N=C2C(F)(F)F)ccc1OCC(C)C [KU0069072]           NO
14  Cc1ccnc(NS(=O)(=O)c2ccc(-n3cccc3)cc2)n1 [KU0034899]          YES
15  Oc1cccnc1/N=C/c1cc(I)cc(I)c1O [KU0073720]          YES
16  CCOc1ccc2cc(C3=NN(C(=O)CCC(=O)O)C(c4ccc(C)cc4)C3)c(=O)[nH]c2c1 (centres unmarked) [KU0056200]           NO

====

Let's look at some molecules and their measured % inhibition Apo pol 5'.
- test-system: UniProtKB Q8ILY1
- assay-notes: Fluorescence-based high-throughput DNA polymerase assay (molecular beacon), primary screen and dose-response
- Type: biochemical
- stated-conditions: DRC-2; 5'; concentration 80 (unit not given)
- Excerpt: The HT assay employs a molecular beacon, a stem-loop DNA template with a Cy3 dye and the Black Hole Quencher on the 3′ and 5′ ends of the DNA, respectively. Pf-apPOL concentration is based on a calculated absorptivity of ε280 = 56750 M^−1 cm^−1. […] To identify apPOL inhibitors we utilised our previously developed high-throughput DNA polymerase assay. […] The assay accurately recapitulates the kinetic behaviour of apPOL, as measured through more conventional low-throughput gel-based assays. […]
metric: % inhibition Apo pol 5' (%)

                                   molecule  value_units  measured
0  CN(C)C1C(c2ccccc2)=C(c2ccccc2)SC(c2ccccc2)C1[N+](=O)[O-] (stereo not shown)            %        47
1  NC(=O)c1cc[n+](CC2=C(C(=O)[O-])N3C(=O)[C@@H](NC(=O)[C@@H](c4ccccc4)S(=O)(=O)[O-])[C@H]3SC2)cc1.[Na+]            %        56
2  Cc1ccc(CCNC(=O)c2cnn3c(O)c(Cc4ccccc4F)c(C)nc23)cc1            %        62
3  COc1ccc(-c2c(C(F)(F)F)nn3c(=O)cc(-c4cccc([N+](=O)[O-])c4)[nH]c23)cc1            %        65

====

- test-system: P. falciparum apicoplast DNA polymerase (Pf-apPOL) (Plasmodium falciparum)
- assay-notes: Fluorescence-based high-throughput DNA polymerase assay (molecular beacon), primary screen and dose-response
- Assay type: biochemical
- stated-conditions: DRC-2; 5'; concentration 20
Is % inhibition Apo pol 5' at least 40%? Then Condition met. If not, Condition not met.

                                    compound        label_class
 0  NC(=O)c1cc[n+](CC2=C(C(=O)[O-])N3C(=O)[C@@H](NC(=O)[C@@H](c4ccccc4)S(=O)(=O)[O-])[C@H]3SC2)cc1.[Na+]      Condition met
 1  O=C(CSc1nnc(-c2ccncc2)[nH]1)c1ccc(O)c(O)c1      Condition met
 2  CCC(C)NC(=O)c1cc(NC(C)=O)cc2nc(C)ccc12 (stereo not shown)      Condition met
 3             CCCCCCCCCCCCCCCCCC(=O)CCN(C)C  Condition not met
 4  CCCCCCCCCCCC1SCC(C(=O)O)N1C(C)=O (stereo not shown)  Condition not met
 5  O=C(O)CCS(=O)(=O)c1ccc(-c2ccc(S(=O)(=O)CCC(=O)O)cc2)cc1      Condition met
 6  O=C(NNC(=O)c1ccc(Cl)cc1)C(=O)NNC(=O)c1ccc(Cl)cc1      Condition met
 7  COc1ccc(-c2c(C(F)(F)F)nn3c(=O)cc(-c4cccc([N+](=O)[O-])c4)[nH]c23)cc1      Condition met
 8       Cc1nc(C)c2c(n1)N(CC1CCCCC1)C(=O)CC2  Condition not met
 9        O=c1cc(CN2CCCCC2)c2cc3c(cc2o1)OCO3  Condition not met
10   O=C1Nc2ccc(I)cc2C1=Cc1cc(Br)c(O)c(Br)c1      Condition met
11  Cc1cc(C)c(O)c(/N=C/c2cc([N+](=O)[O-])cc(Br)c2O)c1  Condition not met
12           O=C1C(=Cc2ccccc2O)Oc2ccc(O)cc21  Condition not met
13  O=c1cc(-c2ccccc2Cl)oc2c(NS(=O)(=O)c3cc(Cl)cc(Cl)c3O)ccc(O)c12  Condition not met
14  Cc1cc(C)c2c(O)nc(SCC(=O)c3ccc(O)c(O)c3)nc2n1      Condition met
15  Cc1ccc(C)n1-c1ccc(C(=O)NNC(=O)c2ccc3nccnc3c2)cc1      Condition met
16     O=C(Nc1cccc(Cl)c1)Nc1nnc(-c2ccncc2)s1      Condition met
17       Cc1cccc2c(C(=O)NC(C)C)cc(N(C)C)nc12  Condition not met
18  N#CC(=NNc1cc(C(F)(F)F)cc(C(F)(F)F)c1)C(=O)c1ccco1      Condition met
19  CCCCOC(=O)CCCCCN1C(=O)C(=Cc2ccc(OC)cc2)SC1=S  Condition not met
20  COc1ccc(NC(=O)Cn2ccc3c(=O)[nH]ccc32)cc1Cl [Molecule 10, COc1ccc(cc1Cl)NC(=O)Cn1ccc2c1cc[nH]c2=O]      Condition met
21  O=C1N/C(=N/c2ccccc2Cl)S/C1=C/c1ccc([N+](=O)[O-])o1      Condition met
22     CC(=O)Nc1cc(C(=O)NC(C)C)c2ccc(C)nc2c1      Condition met
23   COCC(=O)Nc1c(-c2cccc(F)c2)nc2cc(C)ccn12      Condition met
24  Cc1ccc(CCNC(=O)c2cnn3c(O)c(Cc4ccccc4F)c(C)nc23)cc1      Condition met
25  CC(C)CC(C(=O)O)N1C(=O)C2C3C=CC(C2C1=O)C1C(=O)N(C(CC(C)C)C(=O)O)C(=O)C31 (stereo not shown)  Condition not met
26  Cc1ccc(N2CCC(NC(=O)Cc3cccs3)C2=O)cc1C (stereo not shown)  Condition not met
27      CC(=O)c1cc2c(N)c(/C(N)=N/C#N)sc2nc1C  Condition not met
28  CC(C)(C)c1cc(C(=O)C(C#N)=NNc2cccc(Cl)c2)no1      Condition met
29  COc1ccc(C)cc1NC(=O)Cn1ccc2c(=O)[nH]ccc21 [Molecule 15, COc1ccc(cc1NC(=O)Cn1ccc2c1cc[nH]c2=O)C]      Condition met
30  O=C(NC(C(Cl)Cl)S(=O)(=O)c1ccccc1)c1ccccc1 (stereo not shown)      Condition met
31  CSC1=C(C#N)C(=C(C#N)C#N)NC(c2ccccc2)=N1 [Molecule 2, CSc1nc([nH]c(=C(C#N)C#N)c1C#N)c1ccccc1]      Condition met
